The origin of these recorded values is the supplement of paper PMC7877785.

experiment: self-splicing fitness, log relative to wild type (ln ratio); higher = more splicing; Tetrahymena group I intron in knt gene, E. coli kanamycin selection, DiMSum; sequences stand for … in CUCUCU…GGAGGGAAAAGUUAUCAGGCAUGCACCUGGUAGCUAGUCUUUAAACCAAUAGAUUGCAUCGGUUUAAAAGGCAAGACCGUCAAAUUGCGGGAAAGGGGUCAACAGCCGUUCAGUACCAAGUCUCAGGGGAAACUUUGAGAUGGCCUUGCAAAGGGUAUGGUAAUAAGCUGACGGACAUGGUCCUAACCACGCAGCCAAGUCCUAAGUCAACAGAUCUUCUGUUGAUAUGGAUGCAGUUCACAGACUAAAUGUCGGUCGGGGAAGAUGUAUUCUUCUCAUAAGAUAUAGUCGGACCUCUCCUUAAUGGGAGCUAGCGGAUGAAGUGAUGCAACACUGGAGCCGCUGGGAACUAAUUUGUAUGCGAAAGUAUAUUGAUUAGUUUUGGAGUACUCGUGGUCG; settings: 37 °C;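 note: selection with 25 µg/mL kanamycin versus none on LB agar overnight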
assayReadout: self-splicing fitness (ln)
The response must contain the number and no unit.

Query: Give the measured self-splicing fitness (ln) of ACUGAGCAAUAUUACGAAUU .
Reply: -2.1

Query: Give the measured self-splicing fitness (ln) of UGAGAGCAAUAUUACGACAU .
Reply: -2.82
